Measured values drawn from the NIST ThermoML archive (doi:10.1016/j.fluid.2010.10.008) for this set.

- procedureText: activity coefficient (dimensionless); of the first substance listed, at infinite dilution; xn = mol fraction of the nth substance listed
- conditionDescription: 323.15 K; Liquid; Chromatography; x1 = 0
valueKind: activity coefficient

Consider CCC(C)=O [butanone] + CCn1cc[n+](C)c1.CS(=O)(=O)[O-] . Its measured activity coefficient is 4.46

Consider C=CCCCCCC [oct-1-ene] + CCn1cc[n+](C)c1.CS(=O)(=O)[O-] . Its measured activity coefficient is 356

Consider CC1CCCCC1 [methylcyclohexane] + CCn1cc[n+](C)c1.CS(=O)(=O)[O-] . Its measured activity coefficient is 198

Consider C[N+](=O)[O-] [nitromethane] + CCn1cc[n+](C)c1.CS(=O)(=O)[O-] . Its measured activity coefficient is 0.621

Consider CCO [ethanol] + CCn1cc[n+](C)c1.CS(=O)(=O)[O-] . Its measured activity coefficient is 0.509

----------
Field: activity coefficient. Provide a value for each of the compounds that follow.
- procedureText: activity coefficient (dimensionless); of the first substance listed, at infinite dilution; xn = mol fraction of the nth substance listed
- conditionDescription: 333.15 K; Liquid; Chromatography; x1 = 0
# answer = number (no unit)

Consider C[N+](=O)[O-] [nitromethane] + CCn1cc[n+](C)c1.CS(=O)(=O)[O-] . Its measured activity coefficient is 0.638

Consider COCCOC [1,2-dimethoxyethane] + CCn1cc[n+](C)c1.CS(=O)(=O)[O-] . Its measured activity coefficient is 5.69

Consider CCOC(C)=O [ethyl acetate] + CCn1cc[n+](C)c1.CS(=O)(=O)[O-] . Its measured activity coefficient is 7.22

Consider CCO [ethanol] + CCn1cc[n+](C)c1.CS(=O)(=O)[O-] . Its measured activity coefficient is 0.501

Consider CC#N [acetonitrile] + CCn1cc[n+](C)c1.CS(=O)(=O)[O-] . Its measured activity coefficient is 0.887

----------
- procedureText: activity coefficient (dimensionless); of the first substance listed, at infinite dilution; xn = mol fraction of the nth substance listed
- conditionDescription: 353.15 K; Liquid; Chromatography; x1 = 0
Field: activity coefficient. Provide a value for each of the compounds that follow.
# answer = number (no unit)

Consider CCO [ethanol] + CCn1cc[n+](C)c1.CS(=O)(=O)[O-] . Its measured activity coefficient is 0.493

Consider CC(C)=O [acetone] + CCn1cc[n+](C)c1.CS(=O)(=O)[O-] . Its measured activity coefficient is 2.49

Consider Cc1cccc(C)c1 [1,3-dimethylbenzene] + CCn1cc[n+](C)c1.CS(=O)(=O)[O-] . Its measured activity coefficient is 18.8

Consider CCC(C)=O [butanone] + CCn1cc[n+](C)c1.CS(=O)(=O)[O-] . Its measured activity coefficient is 4.38
